# TESTED_SYSTEM: T1, GST-DVL1 PDZ domain fusion protein (human)
# T1 construct: also called human dishevelled segment polarity protein homolog; not shown: glutathione S-transferase (GST) encoded by pGEX-3X
# T1 chain: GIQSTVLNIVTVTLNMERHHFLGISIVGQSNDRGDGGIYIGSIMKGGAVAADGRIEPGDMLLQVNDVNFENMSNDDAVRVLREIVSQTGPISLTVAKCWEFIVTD
# ASSAY_NOTES: A/G assays
Ends that are not written are not given here. * marks the point of attachment. Biotin = O=C1N[C@H]2[C@H](CS[C@H]2CCCCC(=O)*)N1
ASSAY_METRIC: binding result

Guide cases for binding result, answers given:
# BINDER, binding result
measured = [
    ("Biotin-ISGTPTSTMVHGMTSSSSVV [CLASP-2 C-terminal peptide AA2L]", "no binding"),
    ("Biotin-CAISGTSSDRGYGSPRYAEV [CLASP-4 C-terminal peptide AA3L-V]", "no binding"),
    ("Biotin-PKQANGGAYQKPTKQEEFYA [CD138 (syndecan) C-terminal peptide AA18L]", "no binding"),
    ("Biotin-KDSRPSFVGSSSGHTSTTL [CDW128B (IL8RB) C-terminal peptide AA29.2L]", "no binding"),
]

*Q* Identify measured binding result associated with Biotin-GKGKSIGRAPEASLQDKEGA [CC CKR-2 C-terminal peptide AA42L]
*A* no binding

*Q* Report binding result, nothing else, for this binder: Biotin-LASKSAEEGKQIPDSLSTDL [DOCK2 C-terminal peptide AA40L]
*A* no binding

*Q* Look up binding result of Biotin-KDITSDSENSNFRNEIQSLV [CD95 (Apo-1/Fas) C-terminal peptide AA13L] and report it.
*A* no binding

*Q* Hello, please tell me recorded binding result for this one: Biotin-DTPSSSYTQSTMDHDLHDAL [CC CKR-4 C-terminal peptide AA44L]
*A* no binding
